target under test: UniProt:O14684
Sequence (O14684 whole entry): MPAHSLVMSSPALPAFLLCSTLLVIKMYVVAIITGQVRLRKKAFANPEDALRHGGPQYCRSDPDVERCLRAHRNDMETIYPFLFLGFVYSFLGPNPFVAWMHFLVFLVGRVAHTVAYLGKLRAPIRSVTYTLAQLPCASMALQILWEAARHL
test name: Inhibition of mPGES1 in human A549 cells assessed as reduction in IL-1beta-induced PGE2 production preincubated for 30 mins followed by incubation with IL-1beta for 16 to 20 hrs measured after 10 mins by HTRF assay
Assay type: cell-based
pIC50: −log10 of the molar value.
assay metric: pIC50

>>> recorded_result("CC1(C)Cc2c(c(C(=O)Nc3cc(C(F)(F)F)ccc3F)cc3nc(Nc4c(F)cccc4Cl)[nH]c23)O1")
8.02
>>> recorded_result("CC1(C)Cc2c(c(C(=O)Nc3ccccc3C(F)(F)F)cc3nc(Nc4c(Cl)cccc4Cl)[nH]c23)O1")
8.28
>>> recorded_result("Cc1cccc(Cl)c1Nc1nc2cc(C(=O)Nc3ccc(C(F)(F)F)cn3)c3c(c2[nH]1)CC(C)(C)O3")
7.57
>>> recorded_result("Cc1ccc(NC(=O)c2cc3nc(Nc4c(F)cccc4Cl)n(C)c3c3c2OC(C)(C)C3)c(F)c1")
8.51
